Below is a list of entries, each paired with its recorded growth inhibition value.
Assay: NCI Yeast Anticancer Drug Screen. Data for the sgs1 mgt1 strain (AID 161);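 further: 0% = growth of cultures given vehicle only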
Details: S. cerevisiae sgs1 mgt1 strain, at 50.0 µM, hits give high values
Description: Growth inhibition of yeast strains with defined genetic alterations is measured as a screen for potential anti-cancer activity. Selected strains with alterations in DNA damage repair or cell cycle control were exposed to compounds and growth inhibition was measured relative to vehicle treated controls. The strain used in this assay is sgs1 mgt1
Compounds without any hit were thinned out: in the full panel of roughly 79,000, 15% have a hit.

molecule	uom	growth inhibition
CN1CCCc2cc(/C=C\c3ccnc4ccccc34)ccc21	%	98.3
O=C(CNCc1ccccc1)Oc1c(Cl)c(Cl)c(Cl)c(Cl)c1Cl	%	85.2
CCOC(CN=c1nc(N(C)C)ss1)OCC	%	-3.95
Nc1ccccc1Oc1ccc(Cl)cc1Cl	%	93
O=C1C=CC(=O)C(C2OC(=O)C(Br)=C2Br)=C1 (stereo not given)	%	-3.45

---

Experiment: NCI Yeast Anticancer Drug Screen. Data for the rad50 strain (AID 155);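 further: 0% = growth of vehicle-only cultures of the same strain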
Conditions: S. cerevisiae rad50 strain growth inhibition; at 50.0 µM (retest, dose inferred, filed as 5.0)
This is part of a sample that, as a whole, favours compounds with a hit. Of some 79,000 tested, about 15% had one in any assay. Active and inactive are the calls of the source. Cut-off read from the data, not from the text of the source: active = growth inhibition above about 70%; inactive = the rest.
Possible outcomes: active, inactive

molecule	labelValue
O=C(CCC(=O)OCCOc1ccccc1)OCCOc1ccccc1	inactive
N#CNC1=NCOCN1	inactive
O=C1C(=Cc2c[nH]c3ccccc23)C(=O)c2ccccc21	active
CC(C)c1ccc(C=Nc2ccc(SSc3ccc(N=Cc4ccc(C(C)C)cc4)cc3)cc2)cc1	inactive
C=CCCC(=O)O	inactive
O=C1OC(CN2CCOCC2)CN1/N=C/c1ccc([N+](=O)[O-])o1 (configuration not stated)	inactive
O=C(CNCc1ccccc1)Oc1c(Cl)c(Cl)c(Cl)c(Cl)c1Cl	inactive

---

Experiment: NCI Yeast Anticancer Drug Screen. Data for the mlh1 rad18 strain (AID 175)
Conditions: S. cerevisiae mlh1 rad18 strain growth inhibition; at 5.0 µM (retest, dose inferred, filed as 0.5); hits give high values
Compounds without any hit were thinned out: in the full panel of roughly 79,000, 15% have a hit. Activity calls are given as the source filed them. No stated cut-off is given here; in the data, active means growth inhibition above about 70%; inactive means the rest.
parameter: growth inhibition

compound	parameter	result
CC1C[C@]2(C)C(=O)Nc3ccccc3[C@@H]2Nc2ccccc21 (stereo partly specified)	growth inhibition	16% (inactive)
O=C(OC(=Nc1ccccc1)N(c1ccccc1)c1ccccc1)c1ccccc1	growth inhibition	9% (inactive)
C=C1C(=O)C23OC2C1CCC(=O)C1(C)CC[C@H](OC(C)=O)C(C)(C)[C@H]1CC3=O (stereo partly specified)	growth inhibition	98% (active)
O=C(CC1=Nc2nnc(CCCCCCCc3nnc4n3C(=O)C(CC(=O)c3ccc5ccccc5c3)=N4)n2C1=O)c1ccc2ccccc2c1	growth inhibition	3% (inactive)
O=C(CON1C(=O)c2ccccc2C1=O)c1ccccc1	growth inhibition	-16% (inactive)
COc1ccc(CC(=O)c2ccc(O)cc2O)cc1	growth inhibition	19% (inactive)
c1ccc(-c2nc3ccccc3[nH]2)cc1	growth inhibition	0% (inactive)
O=C1c2ccccc2-n2c1nc1ccccc1c2=O	growth inhibition	23% (inactive)
Oc1cc2c(cc1C(c1ccc3c(c1)OCO3)N1CCN(C(c3ccc4c(c3)OCO4)c3cc4c(cc3O)OCO4)CC1)OCO2 (stereo unspecified)	growth inhibition	3% (inactive)
C#CC(C)(C)OC(=O)Nc1ccccc1	growth inhibition	-3% (inactive)
COc1ccc2nc3cc(Cl)ccc3c(NCCCNCc3cc(OC)c(OC)c(OC)c3)c2c1	growth inhibition	3% (inactive)
CCc1[nH]c(=O)nc(N)c1-c1ccc(N2CCCCC2)c([N+](=O)[O-])c1	growth inhibition	-22% (inactive)
O=Cc1cc([N+](=O)[O-])ccc1O.[Eu]	growth inhibition	29% (inactive)
CCC(C)(C)c1cc(O)c(C(C)(C)CC)cc1O	growth inhibition	10% (inactive)
CCSSC(=Nc1ccccc1)OCC(C)C	growth inhibition	23% (inactive)
c1ccc(CSC(SCc2ccccc2)(c2ccccc2)c2ccccc2)cc1	growth inhibition	22% (inactive)

Origin of values: PubChem BioAssay (NCI)
